- study_target: Melanocortin receptor 4 (Homo sapiens) (UniProt P32245)
- Sequence (P32245 whole entry, looked up): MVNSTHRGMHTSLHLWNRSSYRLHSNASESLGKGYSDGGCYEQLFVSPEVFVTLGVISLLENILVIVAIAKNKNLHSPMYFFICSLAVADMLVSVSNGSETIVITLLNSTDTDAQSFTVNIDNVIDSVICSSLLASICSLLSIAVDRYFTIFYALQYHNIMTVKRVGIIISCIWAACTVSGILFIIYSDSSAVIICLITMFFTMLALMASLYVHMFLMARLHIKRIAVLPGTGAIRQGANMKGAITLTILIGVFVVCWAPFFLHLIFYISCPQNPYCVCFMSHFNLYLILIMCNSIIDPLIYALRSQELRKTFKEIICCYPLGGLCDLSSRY
- experiment_notes: MC4R antagonists of cAMP signaling, primary screen, cell-based, TR-FRET, antagonist arm of biased-ligand search (AID 540295);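 also: 0% = Melanotan II alone and 100% = Melanotan II plus saturating MCL0020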
- condition_info: MC4R-expressing cells, MTII-stimulated cAMP, LANCE TR-FRET; at 6.5 µM; active compounds read high
Among all 360,000 compounds or so, about 1,700 (0.47%) were called active. The sample as a whole holds a higher share of actives than the screen did.

molecule	inhibition
C#Cc1cc(N2CCN(C(=O)c3ccoc3)CC2)n2nc(-c3cccc(Cl)c3)cc2n1	32.1% (active)
Cn1ccc(=NC=C(C#N)C#N)c2ccccc21	27.8% (inactive)
O=C(c1ccccc1)N1CCN(c2cc(-c3ccccc3)nc3cc(-c4cccc(Cl)c4)nn23)CC1	1.52% (inactive)
CCCc1nc2oc3c(OCC)ncnc3c2c2c1COC(C)(C)C2	2.51% (inactive)
CN(C)CCN1CCN(c2cc(-c3cccc(Cl)c3)nc3ccnn23)CC1	3.3% (inactive)
CC(C)N(c1ccccc1)c1ncnc(NCCC(=O)O)c1[N+](=O)[O-]	9.58% (inactive)
COC(=O)COc1ccc(C2NC(=O)NC(C)=C2C(=O)NCc2ccccc2)cc1OC (stereo not given)	21.9% (inactive)
CN(C)c1ccc(C2Nc3ccccc3C(=O)N2NS(=O)(=O)c2ccccc2)cc1 (stereo not given)	-6.61% (inactive)
Cc1ccc2c(c1)C1CN(C)CCC1N2S(=O)(=O)c1ccc(Oc2ccc([N+](=O)[O-])cc2)cc1 (stereo not given)	2.73% (inactive)
Cc1cccc(-c2nc3c(c(SCC(=O)N4CCOCC4)n2)CCCC3)c1	3.91% (inactive)

---

- study_target: Melanocortin receptor 4 (Homo sapiens) (UniProt P32245)
- experiment_notes: MC4R antagonists of cAMP signaling, primary screen, cell-based, TR-FRET, antagonist arm of biased-ligand search (AID 540295);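 also: 0% = Melanotan II alone and 100% = Melanotan II plus saturating MCL0020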
- condition_info: MC4R-expressing cells, MTII-stimulated cAMP, LANCE TR-FRET; at 6.5 µM
Hit rate of the full screen: of about 360,000 compounds, about 1,700 (0.47%) were called active.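 Rule for the calls: active = inhibition above its plate's cutoff, the mean of tested wells on that plate plus 3 SD (cut at about 29% in these data); inactive = the rest.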 For the sample, actives were picked, then their nearest neighbours and some compounds at random.
Possible outcomes: class 1 = active, class 0 = inactive

molecule	group_label
COc1ccc(Cc2cc(-c3ccc(F)cc3)n[nH]c2=O)cc1	class 0
Cc1cc(=O)oc2c3c(cc(OCC(=O)NCC(O)c4ccccc4)c12)OC(C)(C)CC3 (stereo unspecified)	class 0
Cc1ccc(C)c(N2CCN(C(=O)CCc3nc(-c4cccc(C(F)(F)F)c4)no3)CC2)c1	class 0
O=C1c2ccccc2S(=O)(=O)c2cc(N3CCN(c4ccccn4)CC3)ccc21	class 0
COc1ccc(CCNC(=O)CCCCCNC(=O)N2CCn3c2nc2ccccc23)cc1OC	class 0
CCCCCOC(=O)C1=C(C)Nc2nnnn2C1c1ccc(OC)c(OC)c1OC (stereo unspecified)	class 0
CCN(CC(=O)NCCCN1CCOCC1)S(=O)(=O)c1cc(Cl)ccc1Cl	class 1
CCOc1ccc(Nc2nc(Cl)nc(N3CCN(c4ccc(OC)cc4)CC3)n2)cc1	class 1
Cc1sc2nc(-c3ccccc3F)oc(=O)c2c1C	class 0
COc1ccccc1C(=O)NC(CCSC)C(=O)NNC(=O)c1csc(N2CCOCC2)n1 (stereo unspecified)	class 0
Cc1cc(C)cc(Oc2c(C(F)(F)F)oc3cc(OCC(=O)O)ccc3c2=O)c1	class 0
Cc1ccc(S(=O)(=O)N(C)CC(=O)OCC(=O)Nc2ccccc2)cc1	class 1
CC(C)(C)OC(=O)N1CCC(NC(=O)c2[nH]cnc2C(=O)N[C@@H](Cc2ccccc2)C(=O)OCc2ccccc2)CC1	class 1
O=C(c1ccc2c(c1)C(=O)N(c1ccc(Cl)cc1)C2=O)N1CCN(c2ccccn2)CC1	class 0
Cc1ccccc1SCC(=O)OCC(=O)N1CC(=O)Nc2ccccc21	class 0
CSc1nnc(NC(=O)c2nc(S(=O)(=O)Cc3ccc(C)cc3)ncc2Cl)s1	class 1
NC(=O)COc1ccc(C23CC4CC(CC(C4)C2)C3)cc1	class 0
Cn1ccs/c1=N\S(=O)(=O)c1ccc(C(C)(C)C)cc1	class 0
COc1ccc(NS(=O)(=O)c2ccc(C)c(C(=O)NNC(=O)c3csc(N4CCOCC4)n3)c2)cc1	class 0
COc1ccc(Nc2ncc(F)c(N3CCOCC3)n2)cc1	class 0
O=C(c1ccc2c(c1)N(Cc1ccc(F)cc1)C(=O)c1ccccc1S2(=O)=O)N1CCN(c2ccccn2)CC1	class 1
CCc1ccc2oc(=O)cc(CN3CCCCC3C)c2c1 (stereo unspecified)	class 0
COc1ccc(-c2ccc(CCC(=O)O)n2NC(=O)c2ccc(C(C)(C)C)cc2)cc1	class 0
C[C@@H](NC(=O)c1nc[nH]c1C(=O)N1CCN(C(=O)OC(C)(C)C)CC1)c1ccccc1	class 0
CCOc1ccc(OCC(=O)Nc2c3c(nn2C(C)(C)C)CS(=O)(=O)C3)cc1	class 0
CCN1CCN(c2nc(Nc3cc(OC)ccc3OC)nc(Nc3cc(OC)ccc3OC)n2)CC1	class 0
O=C1CCC([N+](=O)[O-])C(c2ccccc2Br)N1 (stereo unspecified)	class 0
O=C(N[C@@H](Cc1ccccc1)C(=O)OCc1ccccc1)c1nc[nH]c1C(=O)N[C@@H](Cc1ccccc1)C(=O)OCc1ccccc1	class 0
COc1ccc(S(=O)(=O)N(C)CC(=O)NCCCN2CCOCC2)cc1Cl	class 0
O=C(Nc1cc(C(F)(F)F)ccc1Cl)c1cc2nc3c(c(C(F)(F)F)n2n1)CCCC3	class 0
O=C(N/C(=C\c1ccc(O)cc1)C(=O)N1CCCCC1)c1ccccc1	class 0
O=C(Oc1ccc(-c2nnco2)cc1)c1ccc(F)c(S(=O)(=O)N2CCOCC2)c1	class 0
O=C1NC(c2ccccc2)CCC1(Cl)Cl (stereo unspecified)	class 0
CCOC(=O)C(CC)Sc1ncnc2c1nnn2-c1ccc(F)cc1 (stereo unspecified)	class 0
CN(c1ccccc1)S(=O)(=O)c1ccc(NC(=O)COc2ccccc2)cc1	class 0
COc1cccc(NC(=O)Cn2c3ccccc3c3nc4n(c(=O)c32)CCS4)c1	class 0
COc1ccc(S(=O)(=O)N2CCOC2CNC(=O)C(=O)NCc2ccc(F)cc2)cc1 (stereo unspecified)	class 0
NC(=O)CSc1nnc(NC(=O)c2ccc(Br)o2)s1	class 0
Cc1cccc(CS(=O)(=O)c2ncc(Cl)c(C(=O)Nc3ccc(F)cc3)n2)c1	class 0
CCN(CC)C(=O)C1CCCN(Cc2cccc(Cl)c2)C1 (stereo unspecified)	class 0
Cc1ccc(S(=O)(=O)N(C)CC(=O)OCC(=O)N2CC(=O)Nc3ccccc32)cc1	class 1

---

- study_target: Melanocortin receptor 4 (Homo sapiens) (UniProt P32245)
- experiment_notes: MC4R antagonists of cAMP signaling, primary screen, cell-based, TR-FRET, antagonist arm of biased-ligand search (AID 540295);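 also: 0% = Melanotan II alone and 100% = Melanotan II plus saturating MCL0020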
- condition_info: MC4R-expressing cells, MTII-stimulated cAMP, LANCE TR-FRET; at 6.5 µM; active compounds read high
The campaign covered roughly 360,000 compounds. About 1,700 (0.47%) were called active. The full list was thinned out, with actives kept by preference.
metric: inhibition

molecule	metric	reported
O=C(NC1=CC(=O)c2ccccc2C1=O)c1ccccc1	inhibition	34.6% (active)
COc1ccc2sc(-c3ccc(S(C)(=O)=O)cc3)c(-c3ccc(C(N)=O)cc3)c2c1	inhibition	35.3% (active)
Cc1ccc(NC(=O)COC(=O)C2CC2)cc1S(=O)(=O)N1CCOCC1	inhibition	5.97% (inactive)
CC(OC(=O)CCCc1c[nH]c2ccccc12)C(=O)Nc1ccc(S(N)(=O)=O)cc1 (stereo unspecified)	inhibition	-3.17% (inactive)
Cn1nc(C(F)(F)F)cc1C(=O)O	inhibition	-0.27% (inactive)
Cc1ccc(NC(=O)COC(=O)CNC(=O)c2ccc(Cl)cc2Cl)cc1S(=O)(=O)N1CCOCC1	inhibition	31.4% (active)
Cc1ccccc1-c1n[nH]c(=S)n1/N=C/c1ccc(-c2ccccc2Br)o1	inhibition	28.7% (active)
COC(=O)c1cc(NC(=O)c2cc(C(C)(C)C)nn2Cc2cccc(C)c2)ccc1N1CCOCC1	inhibition	4.17% (inactive)
CC1(C(=O)N/N=C/c2cc3c(cc2Br)OCO3)CC1(Br)Br (stereo unspecified)	inhibition	19.5% (inactive)
COc1cccc(NC(=O)c2nn(-c3ccc(OC)cc3OC)c(=O)c3ccccc23)c1	inhibition	-1.09% (inactive)
Cc1ccc(C)c(S(=O)(=O)N2CCCOC2CNC(=O)C(=O)NC2CCCCC2)c1 (stereo unspecified)	inhibition	4.1% (inactive)
COc1ccc(NC(=O)CN2C(=O)NC(C)(c3ccccc3)C2=O)cn1 (stereo unspecified)	inhibition	-0.87% (inactive)
CC(Sc1ccc(S(=O)(=O)N2CCN(C)CC2)cn1)C(=O)NC1CCCC(C)C1C (stereo unspecified)	inhibition	-2.08% (inactive)
COc1ccccc1-c1n[nH]c2c1[C@H](C)CC[C@H]2C(C)C	inhibition	10% (inactive)
COc1ccccc1CC(=O)Nc1ccc(F)cc1F	inhibition	28.9% (active)
Cc1cc(C)c(NC(=O)CN2C(=O)NC(Cc3ccccc3)C2=O)c(C)c1 (stereo unspecified)	inhibition	-8.57% (inactive)
COc1ccc(NC(=O)C2Cc3c(-c4ccc5c(c4)OCO5)ccnc3O2)cn1 (stereo unspecified)	inhibition	-23.9% (inactive)
S=c1[nH]nc(-c2ccco2)n1/N=C/c1ccc(Br)s1	inhibition	-2.7% (inactive)
COc1ccc(/C=C/C(=O)c2c(O)cc(OC)cc2OC)cc1	inhibition	-19.9% (inactive)
COc1ccc(-n2nc(C(=O)Nc3cc(OC)c(OC)c(OC)c3)c3ccccc3c2=O)c(OC)c1	inhibition	31.6% (active)
Cc1ccc(NC(=O)CCCNC(=O)c2ccc(Cl)cc2)cc1S(=O)(=O)N1CCOCC1	inhibition	-7.04% (inactive)

# credit: PubChem BioAssay AID540295
